Tested on: OVCAR-3 ovarian
RUN DESCRIPTION: NCI-60 one-dose screen, 48 h (100 = growth as untreated, 0 = no growth, -100 = all killed)
RUN CONDITIONS: 10 µM unless noted
Description: Growth inhibition of the OVCAR-3 human tumor cell line is measured as a screen for anti-cancer activity. Cells are grown in 96 well plates and exposed to the test compound for 48 hours. Compounds are tested at a single concentration, which is 10^-5 M for most compounds. The reported endpoint is percent growth (GI% or GIPRCNT), where numbers from 0 - 100% represent growth inhibition, and numbers from -100% - 0 represent cell death. For example, a value of 40 represents 60% growth inhibition. […]
The panel holds about 83,000 compounds, 20% with a hit somewhere; the sample as a whole holds those more often. Active and inactive are the calls of the source. The calls were made as follows: active = growth percent below 10; inactive = the rest.
EXPERIMENTAL READOUT: growth

TEST SMILES: CN(C)CCCNc1c2ccccc2nc2ccccc12
growth: 103% (inactive)
//
TEST SMILES: Cc1nc2ccccc2n1C(=O)C[C@@H]1NC(=S)NC1=O
growth: 108% (inactive)
//
TEST SMILES: CC[C@]1(O)C[C@@H]2CN(CCc3c([nH]c4ccccc34)[C@@](C(=O)OC)(c3cc4c(cc3OC)N(C)[C@H]3[C@@](O)(C(N)=O)[C@H](O)[C@]5(CC)[C@@H]6C[C@@H]6CN6CC[C@]43[C@@H]65)C2)C1
growth: 6.81% (active)
//
TEST SMILES: COc1ccc(/C=C2\Oc3cc(OCCCCN4CCCC4)ccc3C2=O)cc1
growth: 94.3% (inactive)
//
TEST SMILES: N#CCCN=Nc1c(O)[nH]c2ccc([N+](=O)[O-])cc12
growth: 103% (inactive)

According to the records, this compound `O=C(COc1ccc(-c2nc3cc(Cl)c(Cl)cc3[nH]2)cc1)N=Nc1c(O)[nH]c2ccccc12` displays growth of -54.9% (active)

The reported value for `CC(C)c1c(C(=O)c2ccccc2)c(-c2ccccc2)c(-c2ccc(F)cc2)n1CC[C@@H](O)C[C@@H](O)CC(=O)O` in terms of growth is 83.9% (inactive)

Form: compound = `CC1=C[C@H]2c3c(c(O)c(O)c4oc5c(C)cccc5c(=O)c34)[C@H](c3cc(O)c(O)c4oc5c(C)cccc5c(=O)c34)[C@H]2C(C)(C)C1` ; growth = 13.8% (inactive)

Lab note: measured growth of `CSc1nc(-c2cccc(NC(=O)CCl)c2)c(C#N)c(=O)n1C` was 8.91% (active)

Memo: `C=C1c2nc3ccccc3n2C=C(c2ccc(OC)cc2)N1Cc1ccccc1` , reported growth: 85.4% (inactive)

----------
Tested on: HOP-62 NSCLC
RUN DESCRIPTION: NCI-60 one-dose screen, 48 h
RUN CONDITIONS: 10 µM unless noted
Compounds without any hit were thinned out: in the full panel of roughly 83,000, 20% have a hit. The source made the active and inactive calls. Rule for the calls: active = growth percent below 10; inactive = the rest.
# valid calls are active, inactive; nothing else

COMPOUND: Cc1cc(C)nc(SC2=C(Nc3cccc(Cl)c3C)C(=O)N(Cc3ccccc3)C2=O)n1
TARGET UNDER TEST: HOP-62 NSCLC
LABEL CLASS: inactive
//
COMPOUND: O=C(/C=C/c1cc(CN2CCOCC2)c(O)c2ncccc12)c1cc(CN2CCOCC2)c(O)c2ncccc12
TARGET UNDER TEST: HOP-62 NSCLC
LABEL CLASS: inactive
//
COMPOUND: OCC(O)c1nc2ccc3[nH]ncc3c2c2c1CCCC2 (configuration not stated)
TARGET UNDER TEST: HOP-62 NSCLC
LABEL CLASS: inactive

Qu. Each compound tested received a call. Report the one for Cc1ccc(NC(=O)C2CCC(CN3CCN(C)CC3)CC2)cc1Nc1nccc(-c2cccnc2)n1 (configuration not stated) .
Ans. inactive

Qu. Each compound tested received a call. Report the one for `COc1ccc(/C=C/c2nc(-c3n[nH]c(=O)n3-c3ccccc3)c3ccccc3n2)cc1` .
Ans. inactive

Qu. What did the test return for COc1ccc(C2CC(c3ccc(Cl)cc3)=NN2/C=C2\SC(=S)N(NC(=O)Cc3ccccc3Nc3c(Cl)cccc3Cl)C2=O)cc1 (configuration not stated) ?
Ans. inactive

Qu. Which outcome was assigned to `C=CC(=O)Nc1cccc(-c2nc(SC)nc(NCc3ccccc3)c2C#N)c1` in this test?
Ans. inactive

Qu. What call does the record list for `O=C1NC(=Nc2ccc(O)cc2)S/C1=C\c1cccc(Cl)c1` ?
Ans. inactive

Qu. What did the test return for `COc1ccc(Nc2nc(SC)nc(-c3cccc([N+](=O)[O-])c3)c2C#N)cc1` ?
Ans. inactive

Qu. Given `COc1cc2c(cc1-c1c(C)noc1C)ncc1nc(C3CCC(F)(F)CC3)n([C@H](C)COC(F)F)c12` , state the outcome it received in this test.
Ans. inactive

Qu. I would be grateful if you could indicate the recorded call for `Oc1cccc2ccc(N/N=C/c3cc(CN4CCOCC4)c(O)c4ncccc34)nc12` .
Ans. active

Qu. Fill in: this test's call for CCN(CC)c1ccc2c(c1)Oc1nc(N)c(C#N)c(N)c1C2Sc1ccc(SC)cc1 (configuration not stated) is ___
Ans. active

Qu. What outcome does the record of this test show for `Clc1ccc2c(NCCNc3nc(N4CCOCC4)nc4ccccc34)ccnc2c1` ?
Ans. active

Qu. For `COc1ccc2[nH]cc(-c3noc(C(=O)c4cn(C)c5ccc(F)cc45)n3)c2c1` , which call appears in the assay record?
Ans. inactive

Qu. Just curious, what result did `Nc1nc2ccc3[nH]ncc3c2c2c1CCCC2` get here?
Ans. active

Qu. Please share the test call associated with `O=S(=O)(Nc1ccc(I)cc1F)c1ccc(-c2cnc(C3CC3)o2)cc1` .
Ans. inactive

----------
Test system: SF-295 CNS
RUN DESCRIPTION: NCI-60 one-dose screen, 48 h
RUN CONDITIONS: 10 µM unless noted
This is part of a sample that, as a whole, favours compounds with a hit. Of some 83,000 tested, about 20% had one in any assay. The source made the active and inactive calls. How the source made its calls: active means growth percent below 10; inactive means the rest.
Output constraint: value belongs to active, inactive

Examples from the recorded data:
MOLECULE: COc1cc(-c2nc(C(=O)NCC(=O)NO)nn2-c2ccc(Cl)cc2)cc(OC)c1OC
LABEL CLASS: inactive
//
MOLECULE: COc1cccc(Nc2nc(SC)nc(-c3cccc([N+](=O)[O-])c3)c2C#N)c1
LABEL CLASS: inactive

Qu. For Cc1cc(N2CCCC2)nc(NC2CCCC(Nc3ccnc4cc(Cl)ccc34)C2)n1 (centres undefined) , what call appears in the results of this test?
Ans. active

Qu. Which outcome was entered for the molecule `Cc1cc2nc(NC(=O)CN3CCN(CCN4C(=O)c5cccc6cccc(c56)C4=O)CC3)sc2cc1C` in this test?
Ans. inactive

Qu. For `CCCc1cc(=O)n2c(C(=O)Nc3ccc(F)cc3)c(C(=O)Nc3ccc(F)cc3)sc2n1` , which call appears in the assay record?
Ans. inactive

Qu. Please share the test call associated with Nc1n[nH]c2ccc([C@@H]3Nc4ccc5cn[nH]c5c4[C@H]4C5CCC(C5)[C@@H]34)cc12 (some centres undefined) .
Ans. inactive

Qu. Identify the outcome logged in this assay for the molecule shown: `Cc1ccccc1COc1ccc(-c2onc(C)c2-c2ccc(Cl)cc2)cc1`
Ans. inactive

Qu. // return assay outcome for `O=C1c2ccccc2OC=C(c2ccccc2)N1CCCCNc1ccc(S(=O)(=O)Nc2ncccn2)cc1`
Ans. inactive

Qu. Entry `C=C1c2nc3ccccc3n2C=C(c2cccc(Cl)c2)N1Cc1ccc(OC)cc1` : call = ?
Ans. active

----------
System: SN12C renal
RUN DESCRIPTION: NCI-60 one-dose screen, 48 h (100 = growth as untreated, 0 = no growth, -100 = all killed)
RUN CONDITIONS: 10 µM unless noted
Compounds without any hit were thinned out: in the full panel of roughly 83,000, 20% have a hit. Active and inactive are the calls of the source. How the source made its calls: active means growth percent below 10; inactive means the rest.
Reported growth values are given for each entry in this list.

Completed entries (count: 8):
MOLECULE: COc1cc(/C=C/c2cc(O)c3cc(C(C)=O)c(=O)oc3c2)cc2c1O[C@]1(C)CC[C@@H](O)C(C)(C)[C@H]1C2
growth: 64.7% (inactive)
//
MOLECULE: CC(=O)O[C@H]1CC[C@]2(C)[C@H]3CC=C4[C@@H]5CC(C)(C)CC[C@]5(C(=O)NCCNCCN)CC[C@@]4(C)[C@]3(C)CC[C@H]2C1(C)C
growth: -89.9% (active)
//
MOLECULE: C[n+]1ccccc1/C=C/c1ccc2cccc(O)c2n1
growth: 91.8% (inactive)
//
MOLECULE: COc1ccc(-c2n[nH]nc2-c2csc3ccccc23)cc1OC
growth: 34% (inactive)
//
MOLECULE: COc1cccc(-c2nc3sccn3c2-c2ccnc(NCCCNS(=O)(=O)c3cccc(F)c3)c2)c1
growth: 28.5% (inactive)
//
MOLECULE: CCCN1CCN(c2ccc3nc(-c4ccc5nc(-c6ccc(OCC)cc6)[nH]c5c4)[nH]c3c2)CC1
growth: 61.2% (inactive)
//
MOLECULE: Cn1cc(-c2nonc2-c2cn(C)c3ccc(F)cc23)c2ccccc21
growth: 33.8% (inactive)
//
MOLECULE: CCOC(=O)c1c(C)oc2ncnc(N3CCN(C(=S)Nc4ccccc4)CC3)c12
growth: 92.7% (inactive)

The measured growth associated with `COc1ccc2cc(-c3nn(-c4ccc(C(=O)O)cc4)cc3CO)ccc2c1` reads 106% (inactive)

Entry `Cn1cc(-c2nonc2-c2c[nH]c3ccc(F)cc23)c2cccnc21` — recorded growth = 85.5% (inactive)

Value of growth reported for the molecule `Cc1cc(N2CCOCC2)nc(NCc2cc(Nc3ccnc4cc(Cl)ccc34)ccc2F)n1` is -72.7% (active)

response.value for OC(c1cc2cc(Cl)c(Cl)cc2c2cc(C(F)(F)F)ccc12)C1CCCCN1 (configuration not stated) (field: growth) = -73.2% (active)

The reported value for CCOc1cc2c(cc1OCC)C(c1cc(OC)c(O)cc1Cl)NCC2 (configuration not stated) in terms of growth is 96.7% (inactive)
